Measured values drawn from paper PMC12637224 for this set.

Biological target: T1, GST-fused talin1 FERM F2–F3 domain
T1 chain: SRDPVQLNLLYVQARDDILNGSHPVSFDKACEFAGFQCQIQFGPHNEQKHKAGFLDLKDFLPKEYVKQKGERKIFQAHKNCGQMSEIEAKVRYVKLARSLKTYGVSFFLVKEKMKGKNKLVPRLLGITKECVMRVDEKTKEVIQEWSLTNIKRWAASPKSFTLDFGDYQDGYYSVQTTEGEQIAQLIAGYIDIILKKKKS
Test: BLI
koff listing for selected binders.
Expressed in s⁻¹, but write only the number.

Recorded results for 3 binders are shown here.
[
  {
    "binder": "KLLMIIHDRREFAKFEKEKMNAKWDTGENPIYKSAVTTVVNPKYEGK (GST carrier omitted. F2-F3 limits are not given; 206-405 is the usual talin1 F2-F3 construct. Mouse is assumed because the other talin1 constructs in the paper are mouse.) [synthetic integrin β1 cytoplasmic tail peptide]",
    "koff / s⁻¹": 0.00509
  },
  {
    "binder": "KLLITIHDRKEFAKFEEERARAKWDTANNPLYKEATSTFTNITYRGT (GST carrier omitted. F2-F3 limits are not given; 206-405 is the usual talin1 F2-F3 construct. Mouse is assumed because the other talin1 constructs in the paper are mouse.) [synthetic integrin β3 cytoplasmic tail peptide]",
    "koff / s⁻¹": 0.00458
  },
  {
    "binder": "synthetic integrin β7 cytoplasmic tail peptide (GST carrier omitted. F2-F3 limits are not given; 206-405 is the usual talin1 F2-F3 construct. Mouse is assumed because the other talin1 constructs in the paper are mouse.) peptide: RLSVEIYDRREYSRFEKEQQQLNWKQDSNPLYKSAITTTINPRFQEADSPTL",
    "koff / s⁻¹": 0.00597
  }
]

Data request, read-out koff, for KALIHLSDLREYRRFEKEKLKSQWNNDNPLFKSATTTVMNPKFAES (GST carrier omitted. F2-F3 limits are not given; 206-405 is the usual talin1 F2-F3 construct. Mouse is assumed because the other talin1 constructs in the paper are mouse.) [synthetic integrin β2 cytoplasmic tail peptide]
0.00398
